Assay: reversal of MRP1-mediated doxorubicin resistance, pilot screen, H69AR cells, doxorubicin co-treatment (AID 601)
Conditions: H69AR cells, CellTiter-Glo, 72 h; compound alone cytotoxicity; at 10 µM
readout_label: viability (%)
Just the number in %, nothing appended.

Q: So what does the record say about viability for CC(=O)N1C(=O)C2(C(C#N)=C(N)Oc3cc(C)oc(=O)c32)c2ccccc21 (stereo not drawn) ?
Result: 88.1

Q: Subsequent entry: Cc1noc(C)c1S(=O)(=O)N1CCC(C(=O)N2CCN(Cc3ccc4c(c3)OCO4)CC2)CC1
Result: 91.9

Q: Subsequent entry: CCOC(=O)C1CCCN(C(=O)c2ccc3c(=O)n(CCOC)c(=S)[nH]c3c2)C1 (stereo not drawn)
Result: 88.6

Q: Subsequent entry: O/N=C/c1ccc(OCC(O)COc2ccc(/C=N/O)cc2)cc1
Result: 90.1

Q: Subsequent entry: CCCCCC(=O)N1CC2(CC)CN(C(=O)CCCCC)CC(CC)(C1)C2=O
Result: 83.3

Q: Subsequent entry: CCOC(=O)c1ccc(NC2OC(=O)c3ccccc32)cc1 (stereo not drawn)
Result: 91.9

Q: Subsequent entry: Cc1nc2sc(C#N)c(N)c2c2c1CCCC2
Result: 102

Q: Subsequent entry: c1ccc(-c2nnc(-c3ccco3)n2-c2ccccc2)cc1
Result: 88.1

Q: Subsequent entry: COc1ccc(C2=Nn3c(nnc3-c3ccccc3)SC2)cc1OC
Result: 81.7

Q: Subsequent entry: O=C(Nn1c(C2CC2)nc2ccccc2c1=O)c1ccco1
Result: 95.4

Q: Subsequent entry: O=C1c2ccccc2C(O)(Cc2ccccc2)N1Cc1ccco1 (stereo not drawn)
Result: 95.7

Q: Subsequent entry: O=C(Cn1cccc1C(=O)c1ccccc1)NCCN1CCOCC1
Result: 90

Q: Subsequent entry: Cn1c(SCc2ccc3c(c2)OCO3)nnc1-c1ccccc1
Result: 96.2

Q: Subsequent entry: CCOC(=O)[C@H](CCc1ccccc1)N[C@@H](C)C(=O)N1CCC[C@H]1C(=O)O
Result: 88.6

Q: Subsequent entry: COc1ccccc1N1CCN(c2nc3ccccc3nc2C(C#N)C(=O)OC(C)C)CC1 (stereo not drawn)
Result: 80.3

Q: Subsequent entry: Nc1ccc2cn[nH]c2c1
Result: 93.1

Q: Subsequent entry: Cc1cc(C)n(-c2nc(C)nc3sc4c(c23)CCC(C)C4)n1 (stereo not drawn)
Result: 96.4

Q: Subsequent entry: Cc1ccc(N2CC(C(=O)Nc3nnc(C)s3)CC2=O)cc1 (stereo not drawn)
Result: 106

Q: Subsequent entry: CC(=O)c1ccc(Oc2cc(C)nc(-n3nc(C)cc3C)n2)cc1
Result: 29.4

Q: Subsequent entry: O=C(CCN1C(=O)COc2ccccc21)N1CCN(c2ccccn2)CC1
Result: 106

Q: Subsequent entry: Cc1ccc(NC(=O)CNc2cccc(C)c2C)c(C)c1
Result: 79.2

Q: Subsequent entry: COc1ccc(C(=O)NCc2ccccc2OC)cc1
Result: 105

Q: Subsequent entry: CCOC(=O)c1cnn(-c2cc(C)c3cc(C)cc(C)c3n2)c1N
Result: 82.5

Q: Subsequent entry: C[C@H]1C[C@H]2[C@@H]3CCC4=CC(=O)C=C[C@]4(C)[C@@]3(Cl)[C@@H](O)C[C@]2(C)[C@@]1(O)C(=O)CO
Result: 97.5

Q: Subsequent entry: Cc1ccc(C)c(OCCCC(C)(C)C(=O)O)c1
Result: 109

Q: Subsequent entry: CC(=O)OCC(=O)c1ccc2ccn(C(C)=O)c2c1
Result: 90.5

Q: Subsequent entry: Cc1nnc(SCC(=O)Nc2cc(C(F)(F)F)ccc2N2CCOCC2)o1
Result: 86.8

Q: Subsequent entry: CCCNS(=O)(=O)c1ccc(OCC(=O)NCc2ccc3c(c2)OCO3)cc1
Result: 94.1

Q: Subsequent entry: Cc1cccc(-c2nc(CN3CCCC(C(=O)NC4CCCC4)C3)c(C)o2)c1 (stereo not drawn)
Result: 84.2

Q: Subsequent entry: CCOC(=O)CSc1nnc(Cn2nnc(-c3ccccc3)n2)n1CC
Result: 90.7

Q: Subsequent entry: Cc1ccc2nsnc2c1S(=O)(=O)N(Cc1cc2cccc(C)c2[nH]c1=O)CC1CCCO1 (stereo not drawn)
Result: 21.4

Q: Subsequent entry: CN1CCC(=C2c3ccccc3CC(=O)c3sccc32)CC1
Result: 91.4

Q: Subsequent entry: CC(C)(S)[C@@H](N)C(=O)O
Result: 110

* * *

Test: Restrictive medium S. cerevisiae growth inhibition, OD615, pilot screen of yeast lifespan reduction project, restrictive growth control (AID 706);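 also: modified DeaD lifespan yeast strain shifted to restrictive glucose medium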
Conditions: OD615, 48 h, at 10 µM, stronger effect = higher value
Hi there, I'd appreciate the recorded growth inhibition for every entry that follows.
Just the number in %, nothing appended.

Q: So what does the record say about growth inhibition for CCCCCn1c(=O)[nH]c2cc(C(=O)NCc3ccc4c(c3)OCO4)ccc2c1=O ?
Result: -10.7

Q: Subsequent entry: CC1(C)Cc2c(sc3nc(SCC(=O)N4CCOCC4)nc(N)c23)CO1
Result: 18.3

Q: Subsequent entry: C=CCn1c(C)nc2c(c1=O)c1nc3ccccc3nc1n2-c1ccc(C)cc1
Result: -2.97

Q: Subsequent entry: Cc1ccc(C(=O)N2CCN(C)CC2)cc1S(=O)(=O)N1CCCCC1
Result: -11.5

Q: Subsequent entry: O=C(c1cc2ccccn2n1)N1CCCC1
Result: -2.7

Q: Subsequent entry: CCCC(=O)Nc1cc(C)c(NC(=O)Cc2ccccc2)cn1
Result: 6.81

Q: Subsequent entry: COc1cccc(C2C(C(=O)c3ccco3)=C(O)C(=O)N2CCCN2CCOCC2)c1OC (stereo not given)
Result: -0.75

Q: Subsequent entry: CCc1ccc(C2N(c3ccc(OC)cc3)C(=O)C3CCCN32)cc1 (stereo not given)
Result: -2.37

Q: Subsequent entry: CCCCCOC(=O)c1[nH]c2c(c1C)C(=O)CC(c1ccco1)C2 (stereo not given)
Result: -3.28

Q: Subsequent entry: CC(=O)c1ccc(N2CCN(C(=O)c3cc4c(=O)n(C)c5ccccc5c4n3C)CC2)cc1
Result: -16.3

* * *

Assay: reversal of MRP1-mediated doxorubicin resistance, pilot screen, H69AR cells, doxorubicin co-treatment (AID 601)
Conditions: H69AR cells, CellTiter-Glo, 72 h; compound alone cytotoxicity; at 10 µM
Peptide text beside a SMILES is read from it. * marks the point of attachment. Boc = CC(C)(C)OC(=O)*
readout_label: viability (%)
Just the number in %, nothing appended.

Q: So what does the record say about viability for Cc1ccc(-n2cnnn2)c2cccnc12 ?
Result: 101

Q: Subsequent entry: Cc1cccc(N2CN=c3s/c(=C\c4ccncc4)c(=O)n3C2)c1
Result: 80.8

Q: Subsequent entry: CC(C)(C)OC(=O)N1CCCC1C(=O)NC(Cc1ccccc1)C(=O)O (stereo not drawn) (Boc-Pro-Phe-OH; configuration not given here)
Result: 104

Q: Subsequent entry: CC(C(=O)c1ccccc1)n1cnc2ccccc2c1=O (configuration not stated)
Result: 89.6

Q: Subsequent entry: CCCCN(CCCC)CCCOC(=O)c1ccc(N)cc1
Result: 90.7

Q: Subsequent entry: O=C(NCC(c1cccnc1)N1CCOCC1)c1cccs1 (configuration not stated)
Result: 92.5

Q: Subsequent entry: CCN(CCO)C1CC(=O)N(c2ccccc2C)C1=O (configuration not stated)
Result: 101

Q: Subsequent entry: O=C(NCc1ccc(F)cc1)C1CCN(C(=O)NCc2ccccc2)CC1
Result: 101

Q: Subsequent entry: O=C(Cn1nnc(-c2cccs2)n1)OC1CCCCC1
Result: 110

Q: Subsequent entry: O=C(OCC(=O)N1CCCC1)c1ccccc1OCc1ccccc1
Result: 99.4

Q: Subsequent entry: c1ccc(-c2nnc(CN3CCC4(CC3)OCCO4)o2)cc1
Result: 98.7

Q: Subsequent entry: O=C(NC(C(=O)c1ccccc1)n1ccc(=O)[nH]c1=O)c1ccccc1 (configuration not stated)
Result: 91.2

Q: Subsequent entry: O=C(OCc1ccc2c(c1)OCO2)c1ccc(S(=O)(=O)N2CCCCC2)cc1
Result: 81.9

Q: Subsequent entry: CCCCCCC(C)n1[nH]c(=O)c2c(C)cc(=O)[nH]c21 (configuration not stated)
Result: 94.2

Q: Subsequent entry: CC(C(=O)Nc1ccccc1-c1ccccc1)N1CCOCC1 (configuration not stated)
Result: 96.1

Q: Subsequent entry: CN(Cc1nc(-c2ccncc2)no1)S(=O)(=O)c1ccccc1
Result: 95.7

Q: Subsequent entry: O=C(NCc1ccc2c(c1)OCO2)c1ccccn1
Result: 88.5

* * *

Experiment: growth suppression of yeast trafficking mutant, preliminary HTS, modulators of trafficking downstream of Golgi apparatus project, 1536-format plate, OD 615 nm (AID 637)
Conditions: yeast transport mutant growth, absorbance 615 nm, 18 h
Calls of active or inactive are those of the source. Rule as the data show it: active = inhibition above about 30%; inactive = the rest.
Answer with one of the outcomes given here: active, inactive

Q: Recorded test outcome, item COc1ccc(S(=O)(=O)C(C#N)c2nc3ccccc3nc2N2CCCC(C)C2)cc1 (stereo not given)
Result: inactive

Q: Subsequent entry: CCn1cc(C(C)NC(=O)COc2ccc(Cl)cc2C)c(C)n1 (stereo not given)
Result: inactive

Q: Subsequent entry: CCOc1ccccc1NS(=O)(=O)c1c(C)noc1C
Result: inactive

Q: Subsequent entry: CCC(=O)Nc1ccc2nc(SCC(=O)N3CCCC3)sc2c1
Result: active

Q: Subsequent entry: c1ccc(-c2nnc(CN3CCC4(CC3)OCCO4)o2)cc1
Result: inactive

Q: Subsequent entry: COCCn1nnnc1C(c1cccs1)N1CCN(c2cc(C)ccc2C)CC1 (stereo not given)
Result: inactive

Q: Subsequent entry: Cc1ccc(-n2ncc(C(=O)N3CCc4ccccc4C3)c2NC(=O)c2ccco2)cc1C
Result: inactive

Q: Subsequent entry: O=C1CC(N2CCOCC2)C(=O)N1c1ccc2c(c1)OCO2 (stereo not given)
Result: inactive

Q: Subsequent entry: Cc1ccc(S(=O)(=O)CCc2nnc(NC(=O)c3cnccn3)s2)cc1
Result: inactive

Q: Subsequent entry: COC(=O)c1ccccc1NC(=O)C1CC(=O)N(c2ccc(F)cc2)C1 (stereo not given)
Result: inactive

Q: Subsequent entry: CCCC1(C(=O)OCC)NC(c2ccc(N(C)C)cc2)C2C(=O)N(c3ccc(F)cc3)C(=O)C21 (stereo not given)
Result: inactive

Q: Subsequent entry: NC1=NC(c2ccc(Cl)cc2)n2c(nc3ccccc32)N1 (stereo not given)
Result: inactive

Q: Subsequent entry: Cc1ccc2cc3cc(C(=O)N4CC(C)CC(C)C4)oc3nc2c1 (stereo not given)
Result: inactive

Q: Subsequent entry: CCN(CC)CCCN1C(=O)C(=O)/C(=C(/O)c2ccccc2)C1c1ccccn1 (stereo not given)
Result: inactive

Q: Subsequent entry: COc1ccc(C(=O)NCc2nnc(SCC(=O)Nc3cc(C)cc(C)c3)o2)cc1OC
Result: inactive

Q: Subsequent entry: O=S(=O)(Nc1nc2ccccc2nc1NCc1ccco1)c1ccc(Cl)cc1
Result: inactive

Q: Subsequent entry: O=S(=O)(NC1=NCCC1)c1cccs1
Result: inactive

Q: Subsequent entry: CCCc1ccc(S(=O)(=O)NCCc2ccncc2)cc1
Result: inactive

Q: Subsequent entry: O=C(CSc1nnc(Cc2ccccc2)n1C1CCCCC1)N1CCOCC1
Result: inactive

Q: Subsequent entry: O=C(NCC(=O)N(c1cnc2ccccc2c1)C(C(=O)NC1CCCC1)c1ccncc1)c1ccco1 (stereo not given)
Result: inactive

Q: Subsequent entry: COCCN(C(=O)CCC(=O)Nc1ccccn1)C(C(=O)NC1CCCC1)c1ccc(OC)cc1 (stereo not given)
Result: inactive

Q: Subsequent entry: CCOC(=O)N1CCN(C(=O)c2cccn3c(=O)c4sccc4nc23)CC1
Result: inactive

Q: Subsequent entry: CCOC(=O)C1CCCN(C(=O)c2cc3c(=O)n4cccc(C)c4nc3n2C)C1 (stereo not given)
Result: inactive

Q: Subsequent entry: Cc1ccccc1-c1nc(CN2CCC(C(=O)NCc3cccnc3)CC2)c(C)o1
Result: inactive

Q: Subsequent entry: CCOc1ccccc1NC(=O)N1C2CCCC1CC(NC(=O)C1CC1)C2 (stereo not given)
Result: inactive
